Source: ChEMBL document CHEMBL1123179

This document collects pKi values reported for 4-aminobutyrate aminotransferase, mitochondrial (Sus scrofa, UniProt P80147).
pKi: −log10 of the molar value.
Assay Readout: pKi

>>> df
           mol_smiles  assay_readout  measured
0  NC/C=C(\CCl)C(=O)O            pKi      4.62
1   NC/C=C(\CF)C(=O)O            pKi      4.72
